- EXPERIMENTAL_TARGET: Bromodomain-containing protein 4 (Homo sapiens)
- TEST_METHOD_NOTES: Inhibition of C-terminal His6-tagged BRD4 BD1 (unknown origin) using H-YSGRGK(Ac)GGK(Ac)GLGK(Ac)-GGAK(Ac)RHRK-Biotin-OH as substrate incubated for 1 hrs by HTRF assay
MEASUREMENT_NAME: pIC50
Keep it numeric: pIC50 is minus log10 of the concentration in mol/L.

As a guide, the following entries are already answered.
[
  {
    "SMILES_REPRESENTATION": "Cc1cc(-c2cc3c(=O)n(C)cc(-c4cc(CS(=O)(=O)C(C)(C)C)ccc4Oc4ccc(F)cc4F)c3o2)cc(C)c1OCCO",
    "MEASUREMENT_NAME": "pIC50",
    "ASSAY_VALUE": 8.48
  },
  {
    "SMILES_REPRESENTATION": "Cc1cc(-c2cc3c(=O)n(C)cc(-c4cc(CS(=O)(=O)C(C)C)ccc4Oc4ccc(F)cc4F)c3o2)cc(C)c1OCCO",
    "MEASUREMENT_NAME": "pIC50",
    "ASSAY_VALUE": 9.24
  },
  {
    "SMILES_REPRESENTATION": "CCS(=O)(=O)Nc1ccc(Oc2c(F)cc(F)cc2F)c(-c2cn(C)c(=O)c3cc(-c4cc(C)c(OCCO)c(C)c4)oc23)c1",
    "MEASUREMENT_NAME": "pIC50",
    "ASSAY_VALUE": 9.37
  },
  {
    "SMILES_REPRESENTATION": "Cc1cc(F)cc(C)c1Oc1ccc(C(C)(C)O)cc1-c1cn(C)c(=O)c2cc(-c3cnc(C4CC4)[nH]3)oc12",
    "MEASUREMENT_NAME": "pIC50",
    "ASSAY_VALUE": 6.79
  },
  {
    "SMILES_REPRESENTATION": "CCS(=O)(=O)Nc1ccc(Oc2ccc(F)cc2F)c(-c2cn(C)c(=O)c3cc(-c4cnc(C5CCC5)[nH]4)oc23)c1",
    "MEASUREMENT_NAME": "pIC50",
    "ASSAY_VALUE": 8.70
  },
  {
    "SMILES_REPRESENTATION": "Cc1cc(F)cc(C)c1Oc1ccc(C(C)(C)O)cc1-c1cn(C)c(=O)c2cc(-c3cnc(C4CCCCC4)[nH]3)oc12",
    "MEASUREMENT_NAME": "pIC50",
    "ASSAY_VALUE": 6.49
  }
]

Request the reported pIC50 associated with `CCS(=O)(=O)Nc1ccc(Oc2c(C)cccc2C)c(-c2cn(C)c(=O)c3cc(-c4cc(C)c(OCCO)c(C)c4)oc23)c1`
8.22
